Experiment: NCI Yeast Anticancer Drug Screen. Data for the mec2-1 strain (AID 157)
Conditions: S. cerevisiae mec2-1 strain, at 50.0 µM, stronger effect = higher value
Compounds without any hit were thinned out: in the full panel of roughly 79,000, 15% have a hit.
Parameter: growth inhibition (%)
Report the figure in % without appending any unit label.

Please review the following examples before continuing.
O=C1N(Cl)C2C(N1Cl)N(Cl)C(=O)N2Cl (stereo unspecified); -9.55
O=C(c1ccc(-c2ccccc2)cc1)N(C(=O)c1cc(N2CCOCC2)ccn1)c1ccc([N+](=O)[O-])cc1; 17.8

growth inhibition in this record for O=C1/C(=C/c2cccs2)CCc2ccccc21 : -12.4

* * *

Assay: NCI Yeast Anticancer Drug Screen. Data for the sgs1 mgt1 strain (AID 161);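 also: 0% = growth of cultures given vehicle only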
Conditions: S. cerevisiae sgs1 mgt1 strain, at 50.0 µM, stronger effect = higher value
About 79,000 compounds went through this panel and 15% of them were active in at least one assay; those are over-represented in the sample as a whole.
Given measured growth inhibition, output criterion met if it is greater than or equal to 20% and criterion not met if not.

Q: Determine whether measured growth inhibition meets or exceeds 20% for COc1ccc(Br)c(C=O)c1NC(C)=O
Result: criterion met

Q: Determine whether measured growth inhibition meets or exceeds 20% for CC(C)/C=C1\CCC(CN(C)C)C1=O (configuration not stated)
Result: criterion met

Q: Determine whether measured growth inhibition meets or exceeds 20% for Nc1cc2c(cc1[N+](=O)[O-])-c1cccc(F)c1C2
Result: criterion not met

Q: Determine whether measured growth inhibition meets or exceeds 20% for CCCCCCC1=CC(=O)CC(=O)C1
Result: criterion not met

Q: Determine whether measured growth inhibition meets or exceeds 20% for O=Cc1c(CO)cc(O)c(O)c1O
Result: criterion not met

Q: Determine whether measured growth inhibition meets or exceeds 20% for O=C1/C(=C/c2ccc3c(c2)OCO3)SC2C=Nc3ccccc3N12 (configuration not stated)
Result: criterion not met

Q: Determine whether measured growth inhibition meets or exceeds 20% for Cc1ccc(C)c(NS(=O)(=O)c2ccc(Cl)c([N+](=O)[O-])c2)c1
Result: criterion met

Q: Determine whether measured growth inhibition meets or exceeds 20% for CS(=O)(=O)CCCCCCCCCCC(=O)O
Result: criterion not met

Q: Determine whether measured growth inhibition meets or exceeds 20% for CCOC(=O)Nc1nc2cc(C(=O)OC)n(C)c2s1
Result: criterion met

* * *

Experiment: NCI Yeast Anticancer Drug Screen. Data for the mec2-1 strain (AID 157)
Settings: S. cerevisiae mec2-1 strain, at 50.0 µM, stronger effect = higher value
Procedure: Growth inhibition of yeast strains with defined genetic alterations is measured as a screen for potential anti-cancer activity. Selected strains with alterations in DNA damage repair or cell cycle control were exposed to compounds and growth inhibition was measured relative to vehicle treated controls. The strain used in this assay is mec2-1
Compounds without any hit were thinned out: in the full panel of roughly 79,000, 15% have a hit.
growth inhibition reference
Report the figure in % without appending any unit label.

O=C1NCC/C1=C\c1ccc(Cl)c(Cl)c1; -12.4
O=C(O)COc1ccc([N+](=O)[O-])cc1/C=C1/SC(=S)N(c2ccccc2)C1=O; 10.3
Clc1ccccc1C(N1CCCCC1)N1CCCCC1; 13.2
C/C(=N\NC(=O)c1cccnc1)c1cccc(/C(C)=N/NC(=O)c2cccnc2)n1.CC(=O)[O-].CC(=O)[O-].[Zn+2]; 5.15
CC(=O)N(C)c1ccccc1O; -10.1

growth inhibition in this record for CCCCCCCCNCC(=O)O : -21.6

growth inhibition in this record for O=C(/C=C/C(=O)c1ccc(O)cc1)Oc1ccccc1 : -3.75
